Listing of entries alongside the reported binding signal.
measurement.target: Dmp53 (Drosophila melanogaster, UniProt Q9N6D8 1-385)
Sequence: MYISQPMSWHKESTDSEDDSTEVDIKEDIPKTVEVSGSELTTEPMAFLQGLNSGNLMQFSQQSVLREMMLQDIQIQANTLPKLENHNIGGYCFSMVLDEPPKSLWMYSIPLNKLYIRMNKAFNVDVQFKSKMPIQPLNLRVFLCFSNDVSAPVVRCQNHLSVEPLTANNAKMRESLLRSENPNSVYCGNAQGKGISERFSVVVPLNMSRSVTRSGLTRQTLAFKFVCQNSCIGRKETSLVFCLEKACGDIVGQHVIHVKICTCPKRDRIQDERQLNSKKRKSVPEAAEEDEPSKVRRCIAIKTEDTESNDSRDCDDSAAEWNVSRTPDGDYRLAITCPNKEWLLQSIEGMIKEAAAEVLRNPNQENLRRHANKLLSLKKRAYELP
measurement.notes: fluorescence anisotropy competition titration; 25 mM sodium phosphate (purification buffer pH 7.2), 225 mM NaCl, 10% v/v glycerol, 5 mM DTT, 0.2 mg/mL BSA, 22 C; low values mean tight binding
condition: protein: recombinant; tags: N-terminal 6xHis-lipoyl-TEV tag, cleaved; chain copies: 4; dsDNA, one strand shown
Entry format: amount then unit.

Some solved cases for reference:
>>> print(df.to_string())
              sequence_record       value_observed
0  CGCGGAAATGTCCGGACATGTCCCGC  1.31 delta log10 Kd
1  CGCGAACATGTCCGGACATGTCCCGC     0 delta log10 Kd
2  CGCGGCCATGTCCGGACATGTCCCGC  0.75 delta log10 Kd

Problem: Quick check: binding signal on Dmp53 (Drosophila melanogaster, UniProt Q9N6D8 1-385), item `CGCGGACAAGTCCGGACATGTCCCGC` ?
Result: 0.22 delta log10 Kd

Problem: One more sequence: `CGCGGACATGTCGGGACATGTCCCGC`
Result: 0.02 delta log10 Kd

Problem: Repeat with `CGCGGACATGTACGGACATGTCCCGC`
Result: 0.07 delta log10 Kd

Problem: And then `CGCAGACATGTCCGGACATGTCCCGC` , what is it?
Result: 0.03 delta log10 Kd

Problem: Likewise for `CGCGGGCATGTCCGGACATGTCCCGC` ?
Result: 0.25 delta log10 Kd

Problem: How about `CGCGGATATGTCCGGACATGTCCCGC` ?
Result: 1.01 delta log10 Kd

Problem: Likewise for `CGCGGAGATGTCCGGACATGTCCCGC` ?
Result: 1.2 delta log10 Kd

Problem: Next: `CGCGGACATATCCGGACATGTCCCGC`
Result: 0.98 delta log10 Kd

----------
measurement.target: ΔNp63β (Homo sapiens, UniProt Q9H3D4-4 1-461)
Sequence: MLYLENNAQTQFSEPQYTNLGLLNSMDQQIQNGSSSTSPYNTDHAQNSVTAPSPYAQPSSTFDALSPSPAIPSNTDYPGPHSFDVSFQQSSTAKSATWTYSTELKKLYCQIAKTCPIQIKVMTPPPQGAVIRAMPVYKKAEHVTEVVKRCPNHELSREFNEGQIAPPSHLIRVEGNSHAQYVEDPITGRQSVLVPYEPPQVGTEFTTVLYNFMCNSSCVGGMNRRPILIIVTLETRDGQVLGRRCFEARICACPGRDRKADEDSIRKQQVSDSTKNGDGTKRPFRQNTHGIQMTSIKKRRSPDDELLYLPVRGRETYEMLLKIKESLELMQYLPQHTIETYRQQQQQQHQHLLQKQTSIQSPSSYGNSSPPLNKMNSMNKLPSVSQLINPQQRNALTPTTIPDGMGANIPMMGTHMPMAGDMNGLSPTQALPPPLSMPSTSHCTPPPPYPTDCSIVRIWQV
measurement.notes: fluorescence anisotropy competition titration; 25 mM sodium phosphate (purification buffer pH 7.2), 225 mM NaCl, 10% v/v glycerol, 5 mM DTT, 0.2 mg/mL BSA, 22 C; low values mean tight binding
condition: protein: recombinant; tags: N-terminal 6xHis-lipoyl-TEV tag, cleaved; chain copies: 4; dsDNA, one strand shown
We use 0.9 delta log10 Kd as the dividing line for binding signal: on or above the line is satisfied, below is not satisfied.

The examples below pair each entry with its known result.
>>> df
              sequence_record          group
0  CGCGGACATTTCCGGACATGTCCCGC      satisfied
1  CGCGGACATGTCAGGACATGTCCCGC  not satisfied
2  CGCGGACTTGTCCGGACATGTCCCGC  not satisfied
3  CGCGGACATGTACGGACATGTCCCGC  not satisfied

From here, focus on the item given below.
Problem: Determine whether measured binding signal meets or exceeds 0.9 delta log10 Kd for `CGCGGAAATGTCCGGACATGTCCCGC`
Result: satisfied

----------
Measured binding signal of individual entries
measurement.target: ΔNp63β (Homo sapiens, UniProt Q9H3D4-4 1-461)
Sequence: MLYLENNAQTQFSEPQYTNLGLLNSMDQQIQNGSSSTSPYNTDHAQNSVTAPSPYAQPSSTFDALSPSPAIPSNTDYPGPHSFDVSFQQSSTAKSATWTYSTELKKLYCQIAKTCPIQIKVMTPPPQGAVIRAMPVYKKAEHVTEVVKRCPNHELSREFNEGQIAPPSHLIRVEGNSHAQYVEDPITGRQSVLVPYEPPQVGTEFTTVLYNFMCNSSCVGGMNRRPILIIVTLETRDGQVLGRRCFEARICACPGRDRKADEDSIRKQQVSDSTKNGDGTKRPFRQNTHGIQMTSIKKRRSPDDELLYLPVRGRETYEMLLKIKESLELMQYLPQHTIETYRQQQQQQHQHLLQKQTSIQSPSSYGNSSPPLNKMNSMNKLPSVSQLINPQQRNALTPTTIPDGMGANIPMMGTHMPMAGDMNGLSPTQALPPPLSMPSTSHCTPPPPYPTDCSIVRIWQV
measurement.notes: fluorescence anisotropy competition titration; 25 mM sodium phosphate (purification buffer pH 7.2), 225 mM NaCl, 10% v/v glycerol, 5 mM DTT, 0.2 mg/mL BSA, 22 C; low values mean tight binding
condition: protein: recombinant; tags: N-terminal 6xHis-lipoyl-TEV tag, cleaved; chain copies: 4; dsDNA, one strand shown
Give the quantity in delta log10 Kd, number only.

Solved cases below.
>>> print(df.to_string())
              sequence_record        property  value_observed
0  CGCGGACATGCCCGGACATGTCCCGC  binding signal            0.13
1  CGCGTACATGTCCGGACATGTCCCGC  binding signal            0.23
2  CGCGGACATATCCGGACATGTCCCGC  binding signal             1.2
3  CGCGCACATGTCCGGACATGTCCCGC  binding signal            0.36
4  CGCGGACATCTCCGGACATGTCCCGC  binding signal            1.45
5  CGCGGACATGTGCGGACATGTCCCGC  binding signal            0.46

Problem: Fill in: binding signal of `CGCGAACATGTCCGGACATGTCCCGC` is ___
Result: 0.02

Problem: Query `CGCCGACATGTCCGGACATGTCCCGC` next
Result: 0.07

Problem: Try the sequence `CGCGGACCTGTCCGGACATGTCCCGC`
Result: 0.57

Problem: Same lookup for `CGCGGCCATGTCCGGACATGTCCCGC` , please.
Result: 0.88

Problem: Please answer likewise for `CGCGGACATGACCGGACATGTCCCGC`
Result: 0.62

Problem: # iterate: `CGCGGAGATGTCCGGACATGTCCCGC`
Result: 1.29

Problem: Here is the next sequence: `CGCGGACATGGCCGGACATGTCCCGC`
Result: 1.06

Problem: How about `CGCGGACGTGTCCGGACATGTCCCGC` ?
Result: 0.2

----------
Parameter: binding signal. Scope: all listed entries.
measurement.target: ΔNp73β (Homo sapiens, UniProt O15350-9 1-450)
Sequence: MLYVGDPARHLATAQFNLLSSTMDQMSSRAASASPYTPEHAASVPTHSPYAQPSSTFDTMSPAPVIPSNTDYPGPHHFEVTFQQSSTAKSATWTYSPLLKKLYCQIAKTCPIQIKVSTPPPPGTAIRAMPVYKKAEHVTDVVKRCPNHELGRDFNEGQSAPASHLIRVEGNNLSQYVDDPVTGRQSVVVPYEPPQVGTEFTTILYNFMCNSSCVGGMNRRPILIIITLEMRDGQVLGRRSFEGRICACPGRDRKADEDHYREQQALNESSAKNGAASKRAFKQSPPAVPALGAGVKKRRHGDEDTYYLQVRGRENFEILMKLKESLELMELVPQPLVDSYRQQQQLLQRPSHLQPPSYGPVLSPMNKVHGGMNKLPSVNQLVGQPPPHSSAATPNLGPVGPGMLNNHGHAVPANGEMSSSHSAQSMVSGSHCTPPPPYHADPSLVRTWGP
measurement.notes: fluorescence anisotropy competition titration; 25 mM sodium phosphate (purification buffer pH 7.2), 225 mM NaCl, 10% v/v glycerol, 5 mM DTT, 0.2 mg/mL BSA, 22 C; low values mean tight binding
condition: protein: recombinant; tags: N-terminal 6xHis-lipoyl-TEV tag, cleaved; chain copies: 4; dsDNA, one strand shown
API: value field is a number in delta log10 Kd; no unit string.

Consider the reported binding signal for these sequences:
>>> print(df.to_string())
              sequence_record      scale_unit  value_observed
0  CGCGGACGTGTCCGGACATGTCCCGC  delta log10 Kd            0.27
1  CGCGGACATGTCAGGACATGTCCCGC  delta log10 Kd            0.27
2  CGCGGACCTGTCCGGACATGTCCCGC  delta log10 Kd            0.64
3  CGCGGAAATGTCCGGACATGTCCCGC  delta log10 Kd            1.49

Problem: Fill in the blank: the reported binding signal of `CGCGGACATGTCGGGACATGTCCCGC` is ____.
Result: 0.17

Problem: Okay, and `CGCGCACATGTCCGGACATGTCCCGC` ?
Result: 0.44

Problem: `CGCGGAGATGTCCGGACATGTCCCGC` , same question.
Result: 1.32

Problem: Next record, please: `CGCTGACATGTCCGGACATGTCCCGC`
Result: 0.11

Problem: Cool, now `CGCGGACAGGTCCGGACATGTCCCGC`
Result: 0.49

Problem: Try the sequence `CGCGGACATGTGCGGACATGTCCCGC`
Result: 0.65

Problem: What about this sequence? `CGCGGACATGCCCGGACATGTCCCGC`
Result: 0.03
